Assay: physchem
Conditions: 20 °C, pH 7.8, aqueous buffer, thermodynamic from solid
property_measured: solubility thermodynamic

q: Field request: solubility thermodynamic | item: CCC(=O)NS(=O)(=O)c1ccc(-c2c(-c3ccccc3)noc2C)cc1 [parecoxib sodium]
a: 18 mg/mL

* * *

Test: physchem
Settings: 20 °C, pH 8.2, aqueous buffer, thermodynamic from solid
property_measured: solubility thermodynamic

q: Param item = CCC(=O)NS(=O)(=O)c1ccc(-c2c(-c3ccccc3)noc2C)cc1 [parecoxib sodium] ; retrieve measured solubility thermodynamic.
a: 220 mg/mL
